TEST_PROTOCOL: Solubility in water
Format: physicochemical
CONDITIONS_USED: buffer
ASSAY_READOUT: solubility

>>> print(df.to_string())
                          structure_notation  assay_readout     result
 0  COc1ccc(-n2nnc(-c3ccccc3NC(=O)c3ccc(C(F)(F)F)cc3)n2)cc1     solubility  Insoluble
 1  COc1ccc(C(=O)Nc2ccccc2-c2nnn(-c3ccc(C(F)(F)F)cc3)n2)cc1OC     solubility  Insoluble
 2  COc1ccc(C(=O)Nc2ccccc2-c2nnn(-c3ccccc3OC)n2)cc1     solubility  Insoluble
 3  COc1cccc(-n2nnc(-c3ccccc3NC(=O)c3ccc(C(F)(F)F)cc3)n2)c1     solubility  Insoluble
 4  COc1ccc(C(=O)Nc2ccccc2-c2nnn(-c3ccc(C(F)(F)F)cc3)n2)cc1     solubility  Insoluble
 5  CCOc1ccc(-n2nnc(-c3ccccc3NC(=O)c3ccc(OC)c(OC)c3)n2)cc1     solubility  Insoluble
 6  CCCc1ccc(-n2nnc(-c3ccccc3NC(=O)c3ccc(OC)cc3)n2)cc1     solubility  Insoluble
 7  COc1cccc(-n2nnc(-c3ccccc3NC(=O)c3ccc([N+](=O)[O-])cc3)n2)c1     solubility  Insoluble
 8  CCCc1ccc(C(=O)Nc2ccccc2-c2nnn(-c3ccc(OC)cc3)n2)cc1     solubility  Insoluble
 9  COc1ccccc1-n1nnc(-c2ccccc2NC(=O)c2ccc([N+](=O)[O-])cc2)n1     solubility  Insoluble
10  CCCc1ccc(-n2nnc(-c3ccccc3NC(=O)c3ccc(C(F)(F)F)cc3)n2)cc1     solubility  Insoluble
11  O=C(Nc1ccccc1-c1nnn(-c2ccc(C(F)(F)F)cc2)n1)c1ccc(C(F)(F)F)cc1     solubility  Insoluble
12  Cc1ccc(-n2nnc(-c3ccccc3NC(=O)c3ccc(C(F)(F)F)cc3)n2)cc1     solubility  Insoluble
13  COc1ccc(-n2nnc(-c3ccccc3NC(=O)c3ccc(OC)c(OC)c3)n2)cc1     solubility  Insoluble
14  CCOc1ccc(-n2nnc(-c3ccccc3NC(=O)c3ccc(C(F)(F)F)cc3)n2)cc1     solubility  Insoluble
15  CCOc1ccc(-n2nnc(-c3ccccc3NC(=O)c3ccc([N+](=O)[O-])cc3)n2)cc1     solubility  Insoluble
16  O=C(Nc1ccccc1-c1nnn(-c2ccc(C(F)(F)F)cc2)n1)c1ccc([N+](=O)[O-])cc1     solubility  Insoluble
17  CCCc1ccc(-n2nnc(-c3ccccc3NC(=O)c3ccc([N+](=O)[O-])cc3)n2)cc1     solubility  Insoluble
18  COc1ccccc1-n1nnc(-c2ccccc2NC(=O)c2ccc(C(F)(F)F)cc2)n1     solubility  Insoluble
19  Cc1ccc(-n2nnc(-c3ccccc3NC(=O)c3ccc([N+](=O)[O-])cc3)n2)cc1     solubility  Insoluble
20  COc1ccc(-n2nnc(-c3ccccc3NC(=O)c3ccc([N+](=O)[O-])cc3)n2)cc1     solubility  Insoluble
